Where do these numbers come from? They come from patent US7935706B2.

The compounds listed here are annotated with their melting point.

Example results:
smiles structure: O=C(CC1(O)CCN(c2ccc(C(F)(F)F)cc2)CC1)Nc1ccc2c(c1)CCC(=O)N2
melting point: 222 to 223 °C
//
smiles structure: O=C(NCCC1CCN(c2ccc(C(F)(F)F)cn2)CC1)c1ccc(=O)[nH]c1
melting point: 232 to 234 °C
//
smiles structure: O=C(CC1(O)CCN(c2ccc(C(F)(F)F)cn2)CC1)Nc1ccc2[nH]c(=O)oc2c1
melting point: 218 to 219 °C

I would be grateful if you could share the reported melting point for "O=C(CC1(O)CCN(c2ccc(C(F)(F)F)cc2)CC1)Nc1ccc2c(c1)CC(=O)N2" . 260 to 261 °C

I would be grateful if you could share the reported melting point for "C[C@@H]1CN(C(=O)C(=O)Nc2ccc3[nH]c(=O)oc3c2)CCN1c1ccc(C(F)(F)F)cn1" . 197 to 198 °C

---

The compounds listed here are annotated with their IC50.
assay system: NR1/NR2B receptor (Rattus norvegicus, UniProt P35439+Q00960)
Construct: from tissue; host or cells: rat cerebral cortex membranes (male Slc: Wistar rat)
Sequence (Q00960 27-1482, other chains not shown): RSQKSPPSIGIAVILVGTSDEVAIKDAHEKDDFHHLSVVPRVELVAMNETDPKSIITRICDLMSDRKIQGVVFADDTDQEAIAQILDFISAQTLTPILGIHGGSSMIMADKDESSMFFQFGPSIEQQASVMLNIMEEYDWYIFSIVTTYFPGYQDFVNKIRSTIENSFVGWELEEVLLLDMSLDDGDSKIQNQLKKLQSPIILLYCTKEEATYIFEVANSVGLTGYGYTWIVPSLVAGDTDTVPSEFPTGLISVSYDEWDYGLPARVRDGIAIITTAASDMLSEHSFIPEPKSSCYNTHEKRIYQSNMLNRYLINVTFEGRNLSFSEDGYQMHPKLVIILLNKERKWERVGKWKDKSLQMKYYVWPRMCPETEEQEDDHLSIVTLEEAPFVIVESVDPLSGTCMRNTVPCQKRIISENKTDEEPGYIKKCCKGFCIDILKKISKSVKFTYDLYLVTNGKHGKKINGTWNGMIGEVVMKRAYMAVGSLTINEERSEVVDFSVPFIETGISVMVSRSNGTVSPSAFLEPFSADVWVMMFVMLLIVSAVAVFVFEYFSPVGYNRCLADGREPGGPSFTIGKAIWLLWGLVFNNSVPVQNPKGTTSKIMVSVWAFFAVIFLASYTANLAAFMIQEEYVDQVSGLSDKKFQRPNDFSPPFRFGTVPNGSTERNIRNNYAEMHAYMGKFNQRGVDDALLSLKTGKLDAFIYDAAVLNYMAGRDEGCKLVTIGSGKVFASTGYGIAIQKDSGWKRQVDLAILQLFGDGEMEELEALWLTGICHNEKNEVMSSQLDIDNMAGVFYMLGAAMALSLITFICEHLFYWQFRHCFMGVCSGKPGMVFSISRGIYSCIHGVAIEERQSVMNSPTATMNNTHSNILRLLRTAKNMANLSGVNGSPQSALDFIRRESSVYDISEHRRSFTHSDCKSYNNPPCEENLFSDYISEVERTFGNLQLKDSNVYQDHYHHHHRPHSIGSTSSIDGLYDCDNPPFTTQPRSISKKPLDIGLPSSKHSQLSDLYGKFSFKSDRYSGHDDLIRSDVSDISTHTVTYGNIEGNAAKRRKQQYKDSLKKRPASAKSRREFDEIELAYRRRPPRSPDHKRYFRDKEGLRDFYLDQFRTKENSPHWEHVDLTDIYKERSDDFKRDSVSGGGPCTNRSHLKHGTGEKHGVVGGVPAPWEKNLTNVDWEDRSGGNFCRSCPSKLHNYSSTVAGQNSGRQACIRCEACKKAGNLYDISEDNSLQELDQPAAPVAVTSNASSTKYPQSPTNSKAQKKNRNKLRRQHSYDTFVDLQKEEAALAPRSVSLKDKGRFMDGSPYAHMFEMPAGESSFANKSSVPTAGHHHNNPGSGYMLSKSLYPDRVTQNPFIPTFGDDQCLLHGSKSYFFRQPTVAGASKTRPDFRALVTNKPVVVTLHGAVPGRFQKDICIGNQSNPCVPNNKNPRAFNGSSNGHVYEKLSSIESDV
method description: Test of binding with NMDA receptor (NR1/NR2B receptor): competition with [3H]-Ifenprodil on rat cerebral cortex membrane specimen
run parameters: [3H]-Ifenprodil 5 nM, GBR-12909 3 μM, rat cerebral cortex membranes, ice temperature 120 minutes; read-out: NR2B (IC50 μM)
Give just the number in µM; leave the unit off.

I would be grateful if you could share the reported IC50 for O=C(Nc1cnc2[nH]c(=O)oc2c1)C(=O)N1CCN(c2ccc(Cl)c(F)c2)CC1 [Compound I-113] . 0.034

I would be grateful if you could share the reported IC50 for O=C(CC1(O)CCN(c2ccc(Cl)c(Cl)c2)CC1)Nc1ccc2[nH]c(=O)oc2c1 [Compound I-187] . 0.054

I would be grateful if you could share the reported IC50 for O=C(NCCC1CCN(c2ccc(Cl)cc2)CC1)c1ccc(=O)[nH]c1 [Compound I-1] . 0.043

I would be grateful if you could share the reported IC50 for O=C(C=C1CCN(c2ccc(C(F)(F)F)cn2)CC1)Nc1ccc2[nH]c(=O)sc2c1 [Compound I-66] . 0.09

I would be grateful if you could share the reported IC50 for O=C(Nc1ccc2[nH]c(=O)oc2c1)C(=O)N1CCN(c2ccc(C(F)(F)F)nc2)CC1 [Compound I-198] . 0.073

---

The compounds listed here are annotated with their melting point.

Example results:
compound: COc1ccc(N2CCN(C(=O)C(=O)Nc3ccc4[nH]c(=O)oc4c3)C[C@H]2C)cc1Cl [Compound I-248]
observed result: 118 to 120 °C
//
compound: O=C(C=C1CCN(c2ccc(C(F)(F)F)cn2)CC1)Nc1ccc2[nH]c(=O)sc2c1 [Compound I-66]
observed result: 219 to 220 °C
//
compound: COc1cc(N2CCN(C(=O)C(=O)Nc3ccc4[nH]c(=O)oc4c3)CC2)ccc1Cl [Compound I-250]
observed result: 201 to 203 °C
//
compound: CCOc1ccc(N2CCN(C(=O)C(=O)Nc3ccc4[nH]c(=O)oc4c3)CC2)cc1F [Compound I-253]
observed result: 226 to 228 °C
//
compound: COc1ccc(N2CCN(C(=O)C(=O)Nc3ccc4[nH]c(=O)oc4c3)[C@H](C)C2)cc1Cl [Compound I-249]
observed result: 123 to 125 °C
//
compound: O=C(CC1=CCN(c2ccc(C(F)(F)F)cn2)CC1)Nc1ccc2[nH]c(=O)oc2c1 [Compound I-63]
observed result: 236 to 237 °C
//
compound: O=C(C=C1CCN(c2ccc(F)c(Cl)c2)CC1)Nc1ccc2[nH]c(=O)oc2c1 [Compound I-205]
observed result: 209 to 211 °C
//
compound: O=C(Nc1ccc2[nH]c(=O)oc2c1)C(=O)N1CCN(c2ccc(Cl)cn2)CC1 [Compound I-204]
observed result: 241 to 243 °C

I would be grateful if you could share the reported melting point for O=C(NCCC1CCN(c2ccc(Cl)cc2)CC1)c1ccc(=O)[nH]c1 [Compound I-1] . 232 to 234 °C

I would be grateful if you could share the reported melting point for O=C(NCC1CCN(c2ccc(C(F)(F)F)cc2)CC1)c1ccc(=O)[nH]c1 [Compound I-3] . 283 to 284 °C (dec.)

I would be grateful if you could share the reported melting point for O=C(CC1CCN(c2ccc(C(F)(F)F)cn2)CC1)Nc1ccc2[nH]c(=O)oc2c1 [Compound I-62] . 229 to 230 °C

I would be grateful if you could share the reported melting point for COc1ccc(N2CCN(C(=O)C(=O)Nc3ccc4[nH]c(=O)oc4c3)CC2)cc1Cl [Compound I-247] . 224 to 226 °C

I would be grateful if you could share the reported melting point for O=C(NCCC1CCN(c2ccc(Br)cc2)CC1)c1ccc(=O)[nH]c1 [Compound I-5] . 236 to 238 °C (dec.)

I would be grateful if you could share the reported melting point for O=C(NC1CCN(c2ccc(Cl)cc2)CC1)c1ccc(=O)[nH]c1 [Compound I-4] . 274 to 275 °C (dec.)

I would be grateful if you could share the reported melting point for C[C@@H]1CN(C(=O)C(=O)Nc2ccc3[nH]c(=O)oc3c2)CCN1c1ccc(F)c(Cl)c1 [Compound I-206] . 107 to 108 °C

I would be grateful if you could share the reported melting point for O=C(NCCC1CCN(c2ccc(Cl)c(F)c2)CC1)c1ccc(=O)[nH]c1 [Compound I-208] . 230 to 232 °C
